B1: SNX8 (parent)
chain: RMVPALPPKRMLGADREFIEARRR

variants of: B1; test: protein stability index of a GFP-peptide fusion (GPS, HEK-293T) (PSI 1-6); higher = more stable; conditions: c terminus: a fixed tail appended;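 also: lentivirally expressed fusions sorted by FACS into six bins by GFP to DsRed ratio, PSI derived from sequencing read proportions per bin multiplied by bin number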
Criterion: protein stability index meeting or surpassing 4. Met: Condition met. Not met: Condition not met.

Example entries and their recorded answers appear below.
R23L = Condition not met
P4W = Condition not met
P8E = Condition not met
R23T = Condition not met
P4L = Condition not met
R16P = Condition met
L6D = Condition met
R1Y = Condition not met
P7T = Condition not met
R10Y = Condition not met

Request: Is protein stability index for R10H at or above 4?
Result: Condition met

Request: Is protein stability index for K9R at or above 4?
Result: Condition not met

Request: Is protein stability index for V3S at or above 4?
Result: Condition not met

Request: Is protein stability index for D15A at or above 4?
Result: Condition not met
